Biological target: PD-1/PD-L1 protein/protein interaction (Homo sapiens, UniProt Q9NZQ7)
Construct: Recombinant human PD-L1 protein (19-238) with a His-tag at the C-terminus; purchased AcroBiosystems PD1-H5229 (PD-L1); PD1-H5257 (PD-1)
Sequence (Q9NZQ7 19-238): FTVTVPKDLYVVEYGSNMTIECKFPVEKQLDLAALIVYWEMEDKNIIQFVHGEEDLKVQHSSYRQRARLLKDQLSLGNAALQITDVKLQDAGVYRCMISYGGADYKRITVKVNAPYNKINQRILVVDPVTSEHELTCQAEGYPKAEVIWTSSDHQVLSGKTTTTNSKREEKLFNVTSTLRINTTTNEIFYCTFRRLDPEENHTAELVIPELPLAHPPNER
Assay: PD-1/PD-L1 homogenous time-resolved fluorescence (HTRF) binding assay
Procedure: Resolved Fluorescence (HTRF) Binding Assay The assays were conducted in a standard black 384-well polystyrene plate with a final volume of […]. Inhibitors were first serially diluted in DMSO and then added to the plate wells before the addition of other reaction components. The final concentration of DMSO in the assay was 1%. The assays were carried out at 25° C. in the PBS buffer (pH 7.4) with 0.05% Tween-20 and 0.1% BSA. […]
pIC50: −log10 of the molar value.
endpoint-label: pIC50

INSERT INTO assay_data (compound, measured_value) VALUES
  ('Cc1c(Nc2nccc3cc(CN4CCCCC4C(=O)O)cnc23)cccc1-c1cccc(OC(C)CCN2CCOCC2)c1C (stereo not shown) [Compound 55]', '8.00 to 8.70'),
  ('Cc1c(CCCCN2CCOCC2)cccc1-c1cccc(Nc2nccc3cc(CN4CCCCC4C(=O)O)cnc23)c1C (stereo not shown) [Compound 58]', '8.00 to 8.70'),
  ('Cc1c(Nc2nccc3cc(CN4CCCCC4C(=O)O)cnc23)cccc1-c1cccc(OCCCN2CCCC2)c1C (stereo not shown) [Compound 18]', '> 8.70'),
  ('CCN(CC(=O)O)Cc1cnc2c(Nc3cccc(-c4cccc(OCCCN5CCOCC5)c4C)c3C)nccc2c1 [Compound 14]', '> 8.70'),
  ('Cc1c(Nc2nccc3cc(CN4CCCCC4C(=O)O)cnc23)cccc1-c1cccc(N(C)C(=O)CCN2CCOCC2)c1C (stereo not shown) [Compound 50]', '< 6.82'),
  ('Cc1c(Nc2nccc3cc(CN4CCCCC4C(=O)O)cnc23)cccc1-c1cccc(OCCCN2CCN(C)CC2)c1C (stereo not shown) [Compound 17]', '8.00 to 8.70'),
  ('Cc1c(Nc2nccc3cc(CN4CCCCC4C(=O)O)cnc23)cccc1-c1cccc2c1ccn2CCCN1CCOCC1 (stereo not shown) [Compound 34]', '< 6.82'),
  ('Cc1c(Nc2nccc3cc(CN4CCCCC4C(=O)O)cnc23)cccc1-c1cccc(OCCCNCC(=O)O)c1C (stereo not shown) [Compound 28]', '> 8.70'),
  ('Cc1c(NCCCN2CCOCC2)cccc1-c1cccc(Nc2nccc3cc(CN4CCCCC4C(=O)O)cnc23)c1C (stereo not shown) [Compound 48]', '8.00 to 8.70'),
  ('Cc1c(Nc2nccc3cc(CN4CCCCC4C(=O)O)cnc23)cccc1-c1cccc(OCCCNC2COC2)c1 (stereo not shown) [Compound 33]', '> 8.70'),
  ('Cc1c(Nc2nccc3cc(CN4CCCCC4C(=O)O)cnc23)cccc1-c1cccc(OCCCN2CCOCC2)c1C#N (stereo not shown) [Compound 39]', '8.00 to 8.70'),
  ('COc1ccc(-c2cccc(Nc3nccc4cc(CN5CCCCC5C(=O)O)cnc34)c2C)cc1OCCCN1CCOCC1 (stereo not shown) [Compound 59]', '8.00 to 8.70'),
  ('Cc1c(NC(=O)CCN2CCOCC2)cccc1-c1cccc(Nc2nccc3cc(CN4CCCCC4C(=O)O)cnc23)c1C (stereo not shown) [Compound 49]', '8.00 to 8.70'),
  ('Cc1c(NC(=O)NCCNCCO)cccc1-c1cccc(Nc2nccc3cc(CN4CCCCC4C(=O)O)cnc23)c1C (stereo not shown) [Compound 51]', '< 6.82'),
  ('Cc1c(Nc2nccc3cc(CN4CCCCC4C(=O)O)cnc23)cccc1-c1cccc(OCCCN2CCCCC2)c1C (stereo not shown) [Compound 16]', '> 8.70'),
  ('Cc1c(Nc2nccc3cc(CN4CC(C(=O)O)C4)cnc23)cccc1-c1cccc(OCCCN2CCOCC2)c1C [Compound 15]', '> 8.70'),
  ('Cc1c(/C=C/CCN2CCOCC2)cccc1-c1cccc(Nc2nccc3cc(CN4CCCCC4C(=O)O)cnc23)c1C (stereo not shown) [Compound 57]', '8.00 to 8.70'),
  ('Cc1c(Nc2nccc3cc(CN4CCCCC4C(=O)O)cnc23)cccc1-c1cccc(OCCCN(C)Cc2ccccc2)c1C (stereo not shown) [Compound 22]', '8.00 to 8.70'),
  ('Cc1c(Nc2nccc3cc(CNCC(=O)O)cnc23)cccc1-c1ccc(Cl)c(OCCCN2CCOCC2)c1 [Compound 44]', '> 8.70'),
  ('Cc1c(Nc2nccc3cc(CN4CCCCC4C(=O)O)cnc23)cccc1-c1cccc(OCCCNC(=N)N)c1C (stereo not shown) [Compound 26]', '< 6.82'),
  ('Cc1c(Nc2nccc3cc(CN4CCCCC4C(=O)O)cnc23)cccc1-c1cccc(OCCCN2CCOCC2)c1C (stereo not shown) [Compound 5]', 8.48),
  ('Cc1c(Nc2nccc3cc(CN4CCCCC4C(=O)O)cnc23)cccc1-c1ccc2ccc(OCCN3CCOCC3)cc2c1 (stereo not shown) [Compound 32]', '< 6.82'),
  ('Cc1c(Nc2nccc3cc(CN4CC(F)(F)CC4C(=O)O)cnc23)cccc1-c1cccc(OCCCN2CCOCC2)c1C (stereo not shown) [Compound 12]', '6.82 to 8.00'),
  ('Cc1c(Nc2nccc3cc(CN4CCCCC4C(=O)O)cnc23)cccc1-c1cccc(OCCCN2CCOCC2)c1Cl (stereo not shown) [Compound 38]', '8.00 to 8.70'),
  ('Cc1c(Nc2nccc3cc(CN4CCCCC4C(=O)O)cnc23)cccc1-c1cccc(OCCCN2CCCC2C(=O)O)c1C (stereo not shown) [Compound 29]', '8.00 to 8.70'),
  ('Cc1c(Nc2nccc3cc(CN4CCCCC4C(=O)O)cnc23)cccc1-c1cccc(OCCCN2CCC(O)C2)c1C (stereo not shown) [Compound 19]', '> 8.70'),
  ('Cc1c(Nc2nccc3cc(CN4CCCCC4C(=O)O)cnc23)cccc1-c1cccc(OCCCN2CCC(C(=O)O)CC2)c1C (stereo not shown) [Compound 30]', '8.00 to 8.70'),
  ('Cc1c(Nc2nccc3cc(CN(C)CC(=O)O)cnc23)cccc1-c1cccc(OCCCN2CCOCC2)c1C [Compound 11]', '8.00 to 8.70');

Values compiled from patent US20210269440A1.
